system: SN12C; test: NCI tumour cell line growth inhibition, 48 h
Calls of active or inactive are those of the source. No stated cut-off is given here; in the data, active = GI50 up to about 1.1 µM and inactive = higher.
Result category, one only: active, inactive

1. CCOP(=O)(OCC)C(F)(F)Cc1cnc(C)c2c1COC(C)(C)O2	inactive
2. COc1cc(/C=C\c2ccc(Cl)cc2)cc(OC)c1OC	active
3. Nc1nc2c(c(-c3ccc(F)cc3)n1)COC/C2=C\c1ccc(F)cc1	inactive
4. Cc1ccc2c(n1)C(=O)c1cc(C)c(C)cc1C2=O	inactive
5. CO[C@H](c1ccccc1)[C@H](C)N(C)c1ccc2ccccc2c1C1=NC(C)(C)CO1	inactive

Q: Called result for "c1ccc(C(OCCN2CC3CCC(C2)N3)c2ccccc2)cc1"
A: inactive

Q: Could you check what this test reported for "O=C1Nc2ccccc2/C1=N/N=C1NCCCCN1" ?
A: inactive

* * *

tested on: MOLT-4; assay: NCI tumour cell line growth inhibition, 48 h
Calls of active or inactive are those of the source. Rule as the data show it: active = GI50 up to about 1.1 µM and inactive = higher.
Please answer using one outcome listed in 1.0 (active), 0.0 (inactive)

The following compounds have reported results that may help.
1) Cn1c(=O)c2nc(CCCc3ccc([N+](=O)[O-])cc3)[nH]c2n(C)c1=O	0.0
2) CCOC(=O)/C(=C\NC(C)(C)CO)c1nc2ccccc2[nH]1	0.0
3) C=C(C)[C@@H]1CCC2=C(CC[C@]3(C)[C@@H]([C@@H](CCC=C(C)C)C(=O)O)[C@H](O)C[C@@]23C)[C@@]1(C)CCC(=O)O	0.0

# input for lookup
Q: I'd appreciate the recorded outcome for NC(=O)SCCC(N)C(=O)O (stereo not drawn) from this test.
A: 0.0

* * *

test system: NCI-H23; assay: NCI tumour cell line growth inhibition, 48 h
Active and inactive are the calls of the source. Cut-off read from the data, not from the text of the source: active = GI50 up to about 1.1 µM and inactive = higher.
Provide the recorded GI50 for the entries that follow.

1. COc1cc2c(cc1OC)C(C1CC1)ON(C)CC2 (stereo not drawn)	> 100 µM (inactive)

Provide each entry's GI50 from the list below.
1. C/C=C/C=C\C1OC(O)([C@H](CC)C(=O)NC/C=C/C=C(\C)[C@H](OC)C(C)C2OC(\C=C/C=C/C=C(\C)C(=O)c3c(O)ccn(C)c3=O)[C@H](O)[C@@H]2O)C(O)C(O)C1(C)C (stereo partly drawn)
2. COC1=CC(=O)c2c(CCNC(=O)OCc3ccccc3)n[nH]c2C1=O
3. O=C(c1c2c(cc3c1CC1(Cc4cc5c(cc4C1)CCCC5)C3)CCCC2)C(Br)Br

A:
> 100 µM (inactive)
4.01 µM (inactive)
14.6 µM (inactive)

* * *

system: HOP-62; test: NCI tumour cell line growth inhibition, 48 h
Active and inactive are the calls of the source. No stated cut-off is given here; in the data, active = GI50 up to about 1.1 µM and inactive = higher.
Your response should consist of one outcome taken from Y = active, N = inactive

1. CC(SC(=S)N(C)C)C(=O)Nc1nnc(-c2ccc(Cl)cc2)o1 (stereo unspecified)	N
2. O=[N+]([O-])C1=Cc2cc(Cl)ccc2OC1c1cccc2ccccc12 (stereo unspecified)	Y
3. COc1cc(/C=N/c2ccc(S(N)(=O)=O)cc2)cc(OC)c1	N

Turning now to a further record.
Q: Per the assay record, what outcome was assigned to "NC(=S)N1N=C2c3ccccc3CCC[C@H]2[C@@H]1c1ccccc1" ?
A: N

* * *

test system: CCRF-CEM; assay: NCI tumour cell line growth inhibition, 48 h
The source made the active and inactive calls. Rule as the data show it: active = GI50 up to about 1.1 µM and inactive = higher.
parameter: GI50

Some solved entries appear below for comparison.
1. O=P1(N(CCCl)CCCl)Oc2ccc(Cl)cc2Sc2c(ccc(Cl)c2Cl)O1 (stereo not drawn)	4.41 µM (inactive)
2. OCCOCCN1CCN(CCCN2c3ccccc3Sc3ccc(C(F)(F)F)cc32)CC1	0.337 µM (active)
3. COc1ccc(Nc2n[nH]c(NS(=O)(=O)c3cc(C)c(Cl)cc3S)n2)cc1	> 100 µM (inactive)
4. Cc1c(C(=O)CC(=O)C(=O)Nc2c(C(C)C)cccc2C(C)C)[n+]([O-])c2ccccc2[n+]1[O-]	2.34 µM (inactive)
5. O=C1NC(=O)C(=O)C(c2nc3ccccc3s2)C1=O	> 100 µM (inactive)
6. O=C(/N=N/c1ccccc1Cl)NNc1ccccc1Cl	22.2 µM (inactive)
7. O=C(NC(=S)Nc1ccc(Br)cc1)c1ccc2c(c1)Sc1ccccc1S2	16.5 µM (inactive)
8. O=C1CC(NCCCNC2CC(=O)c3c(Br)sc(Br)c32)c2c(Br)sc(Br)c21 (stereo not drawn)	0.238 µM (active)

Please supply GI50 for each of the following items, keeping them in order.
1. C/C=C/C=C\C(=O)C1c2cccc(O)c2C(=O)c2c(O)cc(C)cc21 (stereo not drawn)
2. c1ccc(CNC2CC(NCc3ccccn3)CC(NCc3ccccn3)C2)nc1 (stereo not drawn)
3. CCOP(=O)(/C=C/n1cc(C)c(=O)[nH]c1=O)OCC
4. [O-][S+]1Nc2c(Cl)cc(Cl)c(Cl)c2S1 (stereo not drawn)
5. O=C(C=P(c1ccccc1)(c1ccccc1)c1ccccc1)c1ccc(-c2cccc([N+](=O)[O-])c2)s1
6. O=C(CC1(O)C(=O)Nc2c(Cl)cc(Cl)cc21)c1cccc([N+](=O)[O-])c1 (stereo not drawn)

A:
1: 1.27 µM (inactive); 2: 2.92 µM (inactive); 3: > 100 µM (inactive); 4: 39.3 µM (inactive); 5: 30.6 µM (inactive); 6: 17.4 µM (inactive)

Each compound below has a reported value. Please supply its GI50.
1. CC(=O)N1C(C(=O)NC2CCCCC2)CSC1c1ccccc1 (stereo not drawn)
2. COc1cccc(/N=N/C(=N/NC(=O)c2cc(Cl)ccc2O)c2ccc(N(CCC#N)CCC#N)cc2C)c1
3. Cc1cccc(NC(=S)Nc2ccc([N+](=O)[O-])cc2)n1
4. CCOC(=O)CCC(NC(=O)c1ccc(Nc2cnc3ccc(C(F)(F)F)cc3n2)cc1)C(=O)OCC (stereo not drawn)
5. S=C(Nc1ccccc1)Nc1[nH]c(=S)sc1-c1nc2ccccc2[nH]1
6. CC1(O)C2(c3ccccc3)CCC[N+]1(C)CC2 (stereo not drawn)
7. O=S(=O)(c1cc(Cl)ccc1Cl)n1ccnc1
8. O=C1OC[C@@H]2Cc3cc4c(cc3[C@H](c3ccc5c(c3)OCO5)[C@@H]12)OCO4

A:
["> 100 µM (inactive)", "15.3 µM (inactive)", "> 100 µM (inactive)", "> 100 µM (inactive)", "> 100 µM (inactive)", "> 100 µM (inactive)", "37.3 µM (inactive)", "> 25 µM (inactive)"]

Q: Fill in: GI50 of "OCCn1cnc2c(SCc3ccccc3)ncnc21" is ___
A: 39.1 µM (inactive)
